meta.source: PubChem BioAssay (NCATS)

Biological target: Glutathione peroxidase 1 (Homo sapiens)
Assay: Primary qHTS Assay for Inhibitors of Recombinant Selenoprotein Glutathione Peroxidase 1 (GPX1) (AID 1845191); further: nearly all actives have a fitted effect of over 65% in size
Conditions: recombinant GPX1, GR-coupled NADPH fluorescence, 15 min; series mostly up to 48.8 µM
Experimental: Assay Provider: Elias S.J. Arner MD PhD. Department of Medical Biochemistry and Biophysics Karolinska Institutet, Solna, Stockholm, Sweden […] 5; Detection; Fluorescence; ViewLux microplate reader, excitation 340 nm and emission 450 nm. […] 7; Detection; Fluorescence; ViewLux microplate reader, excitation 340 nm and emission 450 nm. […] 5. Initial fluorescence readout (t=0) at 340/450 nm was measured using a ViewLux multimodal detector (PerkinElmer, Waltham, MA). […]
Results filed as inconclusive are left out. Calls of active or inactive are those of the source. The call rests on the fitted dose curve; in most records, active means well fitted inhibition curve with a large enough effect; inconclusive means small, poorly fitted or top-dose-only effect; inactive means flat fitted curve, though single readings scatter.
outcome_measure: outcome

Recorded outcome, per entry:
# compound, outcome
measured = [
    ("CC(=O)SCC(CC(=O)c1ccc(C)cc1)C(=O)O (configuration not stated)", "inactive"),
    ("Cc1cc2c(cc1Cl)N(C(=O)Nc1ccc(Oc3cccnc3C)nc1)CC2", "inactive"),
    ("NS(=O)(=O)C#Cc1ccccc1", "inactive"),
    ("CNC(=O)c1c(I)c(NC(=O)CCCCC(=O)Nc2c(I)c(C(=O)O)c(I)c(C(=O)NC)c2I)c(I)c(C(=O)O)c1I", "inactive"),
]

Please state, for each entry, its recorded outcome.
1. CC1(C)CCC=[N+]1[O-]
2. CN1CC(=O)N/C1=N/C(=O)Nc1cccc(Cl)c1

Result:
1. inactive
2. inactive

// batch mode: one outcome value per listed entry
1. Cc1cn([C@H]2CC(N=[N+]=[N-])[C@@H](CO)O2)c(=O)[nH]c1=O (some centres not stated)
2. COCCOc1cc2nc[nH]c(=O)c2cc1OCCOC
3. CCN(CC)c1ncnc2c1ncn2[C@@H]1O[C@H](COP(=O)(O)OP(=O)(O)C(Br)(Br)P(=O)(O)O)[C@@H](O)[C@H]1O
4. C=C[C@H]1CN2CC[C@@H]1C[C@@H]2[C@@H](O)c1ccnc2ccc(OC)cc12
5. COc1cc2c3cc1Oc1cc(ccc1O)C[C@@H]1c4c(cc(OC)c(O)c4Oc4ccc(cc4)C[C@@H]3N(C)CC2)CC[N+]1(C)C
6. CCCCCCCC/C=C\CCCCCCCC(=O)NCCO

Result:
inactive
inactive
inactive
inactive
inactive
inactive

For every record below, what is its outcome?
1. CCCCCCCCCCCCCCCCCC(=O)OC(CC(=O)O)C[N+](C)(C)C (configuration not stated)
2. CC(C)(NS(=O)(=O)c1ccc(Oc2ccc(F)cc2)cc1)C(=O)NO
3. CCCN(CC1CC1)c1nc(C)nc(Nc2c(Cl)cc(Cl)cc2Cl)c1Cl
4. CN(C)c1nc2c(Br)c(Br)c(Br)c(Br)c2[nH]1
5. O=C(O)[C@H](O)[C@@H](O)[C@H](O)[C@H](O)CO

Result:
["inactive", "inactive", "inactive", "inactive", "inactive"]
